Tested on: K4 kissing-loop RNA reporter
Test: apparent KD of K4 kissing-loop reporter; higher = weaker reporter binding
Settings: Eterna round: R107; input ligand: none
Is apparent KD of K4 kissing-loop reporter at least 300 nM? Then 1. If not, 0.

* UCCUUUUUUGCCAGUGAUGUUGGACAGGAAGGAGCGGGCAUAAGCCCAGGUAGGUCGCCUGUCAACUUUCUUAUAGCCCUAAGGU [Edveza] | 0
* AGGCACGAGCAAGGAUAUCGAGUAGAGUGAUGUUCUGCCUGGGUUGGCUCGCAAGGGCCUUCCCAGCGAGAAGGUGCUCGUGCCU [#2 Same State - FMN A Attempt #17 (HarryS)] | 1
* ACAUCGGUUGAGAGUGAUGUUCCUUGUGUUCGAGGACCGGUACGGCCGCCACUCGGGUAGAAAAUAACAGAUGUGUUUCAUUUUU [BDazzled - #17 SS Tryptophan A] | 0
* CUCAAACCGUGGGCAUUUCGCAAAGUAGAUACCAGUCGCAACGGUGACCCUUGGCAGCUAGUAAAGUGAUGUUUUAUCGGCACCA [theeternabot_exclusion_KL_Theo_A_35] | 0
* CAUACGCAUGGAGGAUAUGAGAUUACUCAUGUCAUUUAAUAUUCUCAGUGAUGUUGAGAUUUUGGCUCAGAAGGCCAUGUGUAUG [Ex FMN B 18] | 1

Please indicate if the recorded apparent KD of K4 kissing-loop reporter for UAGCAUUUGCUCGAGUGAUGUUCGAGCGAAGGAGCGCGAGAAAUCGCAGGUAGGUCGCGCUCGAACUAUGAGCGAUCAUUUAUUG [Arg A Ex t2d] meets or exceeds 300 nM.
1

Exam item: decide whether the reported apparent KD of K4 kissing-loop reporter for AGGGAUGUUAAAGGAUAUAGAAAGUGAUGUUAGAAAGUGAGUGAUGUUGAUGUAAGUGAUGAUAUGUUAGAAGGUUAACAAAACG [abc] is at least 300 nM.
0

Determine whether this sequence has apparent KD of K4 kissing-loop reporter no lower than 300 nM: AUGCAGUGAUGUUGCUUUGUAUAAACAGAUACCAGUGAAUUUUAACACCCUUGGCAGCUGAUAGAUUCUUAAUUCUAUUAUAUAA [JR_SSTheophyA_Sub020]
0

Please tell me: is the sequence GGCAUCCAUGGACAUAGUGAUGUUAUGUACCGAGGACCGGUACGGCCGCCACUCGGCCAUGGAUGCCGCAAUCGGAAACGAUUGC at or over 300 nM in terms of apparent KD of K4 kissing-loop reporter?
1

Please check the record UUCCGGGCCGAAGGAUAUUGGAGUGAUGUUUCAAGACGUUCGUCCCAGCCCAUAGUAACUAUCGCCCAAGAAGGUCGUAUUGAAU [theeternabot_exclusion_KL_FMN_B_13] and state if its apparent KD of K4 kissing-loop reporter is at or above 300 nM.
0

API: above_or_equal(metric=apparent KD of K4 kissing-loop reporter, cutoff=300 nM) for item AAGAGCUAGGCGGCCGCCACUAGUUGUGAACACGUACAAGCCAGUGAUGUUGGUAUGAUGGACGGUAGGACCGGGCCUAGCUGAA [Exclusion - Tryptophan B (Freestyle 14)]
0

Is apparent KD of K4 kissing-loop reporter for AGUUCUUGCCGAAGGAGCGAGGCAGAGUGAUGUUCUGCAGAGGUCGAAAGACCUCAACUGCCUCAGGUAGGUCGCGGCAUGAACA [Omei KL Arginine B Exc A v6] at or above 300 nM?
1

---

Test system: MS2 coat protein
Assay: apparent KD of MS2 coat protein; higher = weaker reporter binding
Settings: Eterna round: R101; input ligand: FMN 200 uM
MEASUREMENT KIND: apparent KD of MS2 coat protein (nM)
Field: numeric (nM). Do not append units.

These solved cases illustrate the format of a correct answer.
- AAAAAUUCUUAAGGAUAUCAGUGGCAAAGCCACUGAGAAGGUGAGGAUCACCCACCUACGUGACGCUGGAAACAGCGUCACGAA [#SharedSequence ExNG1 - 29] (puzzle (switch architecture): Exclusion NG 1): 18.8
- AGAAACUACGAGAAGGACAUGUGGUCCUUCAAAACCAUGAGGAUCACCCAUGUAGGAUAUCGUAGUUUCAGGAUCGUGAGAUCA [salish99_ISLExNG1_023 #HINGE] (puzzle (switch architecture): Inverted Small Loop Exclusion NG 1): 12.1
- AUCAGCUCGUCAGGAUAUACGUCACUGCUUCGGCAGUGUGGUAAGAUCACAUGAGGAUCACCCAUGUAGAAGGGACGAGCUGAU [#EX_NG2_M81 #GC_VS_GU_SWITCHING] (puzzle (switch architecture): Exclusion NG 2): 258
- GGAGACCUUACAGGAUAUGCUGGACUUUGUCCAGCAGAAGGGUGAAAACAUGAGGAUCACCCAUGUAUGGUCUCCAAAUUUAAU [jl-ssng1-3.02 #GU_VS_GC_SWITCHING] (puzzle (switch architecture): Same State NG 1): 21.2

Reported apparent KD of MS2 coat protein ( AUAUAUAUUUAGAAGGACAUGAGGAUCACCCAUGUCGCCGGGCCCGGGAAACCGGGCCCGGCCAUGUAGGAUAUAGAUAUAUAU [#This is a good prank 13] (puzzle (switch architecture): Inverted Exclusion NG 2) ) = 9.05

Form: sequence = CGCUAUAACAUGAGGAUCACCCAUGUAUACAUGGAAUUGACGUAGGAUAUGCAGUUGAUUAUAGUGCAGAAGGACGGUAUAGCG [JR #DistanceFar #Hairpin #Noisy #NP SSNG3 Sub069] (puzzle (switch architecture): Same State NG 3) ; apparent KD of MS2 coat protein = 37.3

// field: apparent KD of MS2 coat protein; key: GGGUACAUCGGAGGAUAUCAUGUAUAUACAUGAGGAUCACCCAUGUCGAUGGAGACAUCGGAGAUUGAGAAGGCCGAUGUACCG (puzzle (switch architecture): Same State NG 2) ; value = 11.8

Sample AAUAAUUCUUAAGGAUAUGACUCCGAAACGGAGUCAGAAGGUGAGGAUCACCCACCUAGCUCAGCGUCGAAAGACGCUGAGCAA [#SharedSequence ExNG1 - 31] (puzzle (switch architecture): Exclusion NG 1) ; apparent KD of MS2 coat protein observed: 12.7

apparent KD of MS2 coat protein reading for CGAUAUAUGAAGGGCAAACGCCCACAUGAGGAUCACCCAUGUAGAAGGCGAUCCGCAACGCGGAUCGAGGAUAUAUAGUAUACA [#my 15th design] (puzzle (switch architecture): Inverted Exclusion NG 3) : 10.6

---

System: K4 kissing-loop RNA reporter;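 further: bound reporter read as fluorescence of individual clusters on recovered sequencing chips by microscopy, with normalized cluster intensities fitted with a binding model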
Assay: apparent KD of K4 kissing-loop reporter; higher = weaker reporter binding
Conditions: Eterna round: R107; input ligand: FMN 200 uM
MEASUREMENT KIND: apparent KD of K4 kissing-loop reporter (µM)
Just the number please, in µM, no unit attached.

Worked examples, 5 sequences total:
- UCGAUGGCCAGCGAUACCAGCCCAGUGAUGUUGGGCACAUGGUUGCGGGAAAUCCCAUUGGGCCCUUGGCAGCGCUUGCAUAGGU [Cezaat]: 0.197
- GCCAGAGCGCGAAGGAGCGCCGUGACAGGUUGCUGCCGUGGGCAGUGAUGUUGCUCAAUCUGGCAGGUAGGUCGCGUGCUCUGGC: 0.269
- GGUAGCUAGGCAGGAUAUAGCUAGUGGAGUGAUGUUCCACCAUACACGAGUGAUGUUCGUAACCUGCUAGAAGGGCCUAGCUACC: 0.114
- UGACUGGACUGAAGGAGCGCGAAACUCCUAGUGAUGUUAGGAAUACGAGACAAAGUCUCGACGCAGGUAGGUCGCAGUCUAGUCU [ArgBS 16 #SwitchBubble #StaticStem]: 0.115
- GGUAGCAUGGCGGCCGCCACUAAAACUGGAUCGGAAACGAUCCAGUAAUUUCGAGUGAUGUUCGUUAGGACCGGGCCAUGCUACC: 0.362

Query sequence follows.
Reported K4 kissing-loop RNA reporter apparent KD of K4 kissing-loop reporter for item UACUUAUUUUUUAACUUAAAUUUUUCAGAAGGAGCGUGAUCAUUCACAGGUAGGUCGCUGAACUAGUGAUGUUAGUUUUAAUUUU [JR_Nu_ExcArginiA_Sub024] was 0.0629

---

Tested on: MS2 coat protein
Test: apparent KD of MS2 coat protein; designed switch direction (-1 OFF switch, 1 ON switch): -1; higher = weaker reporter binding
Conditions: input ligand: none
MEASUREMENT KIND: apparent KD of MS2 coat protein
Report as: number unit

• UACAUGAGGAUCACCCAUGUUUUGUCGUGUAUGGUAUUUAUCUAGGAUAUCAAUUUGUGUAUUUAUGAGAAGGAGAAUAUUAAU [JMF's solution 68] (Eterna round: R96, puzzle: Exclusion NG 3) = 45.8 nM
• UUAAAAUAUGUAGGAUAUGCGUGGCGAAGCUAUGCAGAAGGACAUGAGGAUCACCCAUGUUCCUGCGUCCGCGUACGGAUGCAA [JL Eng1 1.21 mod 3] (Eterna round: R96, puzzle: Exclusion NG 1) = 12.4 nM
• CGAGCCUAUGUAAGGAUAUCACAAUAAAACCAGUGUGAGAAGGUACAUGAGGAUCACCCAUGUUCACGACUGGC [BmEX4 A.26] (Eterna round: R97, puzzle: Brourd's mod of Exclusion 4) = 16.8 nM

# next sequence below
// sample GUGUACGGAGGAUAUAUAUGGGCAGCAUACGCUGCAGCUUCACAUGAGGAUCACCCAUGUAGAAGGCUGUACAC [Mat - Exclusion 2 - Mod of Hyphema - D100] (Eterna round: R96, puzzle: Exclusion 2) , its apparent KD of MS2 coat protein was 24.8 nM

Source of measurements: the supplement of paper PMC9170038
